# assay.procedure: Human primary Th2 cells, proliferation (viability, MTS assay)
# Format: cell-based
# recorded.conditions: human, th2 cells; 1 µM; MTS; read-out: Proliferation (% control) mean

>  <chem.smiles>
O=C(O)c1[nH]c2ccccc2c1Nc1ccncc1

>  <viability at 1 µM>
77.2%

$$$$

---

# assay.procedure: in vitro
# recorded.conditions: mouse, swiss 3t3 fibroblasts
# maps each entry to its viability at 48 h, 0.1 µM
measurement.kind: viability at 48 h, 0.1 µM (%)

>  <compound>
O=C(O)c1[nH]c2ccccc2c1Nc1ccncc1

>  <reading>
111

$$$$
>  <compound>
C[C@@H]1C[C@H]2[C@@H]3CCC4=CC(=O)C=C[C@]4(C)[C@@]3(F)[C@@H](O)C[C@]2(C)[C@@]1(O)C(=O)CO

>  <reading>
64.2

$$$$
>  <compound>
CN(Cc1cnc2nc(N)nc(N)c2n1)c1ccc(C(=O)N[C@@H](CCC(=O)O)C(=O)O)cc1 [Methotrexate]

>  <reading>
98.9

$$$$

---

# assay.procedure: Human primary Th2 cells, proliferation (viability, MTS assay)
# Assay type: cell-based
# recorded.conditions: human, th2 cells; 3 µM; MTS; read-out: Proliferation (% control) mean

>  <chem.smiles>
O=C(O)c1[nH]c2ccccc2c1Nc1ccncc1

>  <viability at 3 µM, %>
72

$$$$

---

# assay.procedure: in vitro
# recorded.conditions: mouse, swiss 3t3 fibroblasts

>  <compound>
O=C(O)c1[nH]c2ccccc2c1Nc1ccncc1

>  <viability at 48 h, 3 µM (%)>
110

$$$$
>  <compound>
CN(Cc1cnc2nc(N)nc(N)c2n1)c1ccc(C(=O)N[C@@H](CCC(=O)O)C(=O)O)cc1 [Methotrexate]

>  <viability at 48 h, 3 µM (%)>
93.8

$$$$
>  <compound>
C[C@@H]1C[C@H]2[C@@H]3CCC4=CC(=O)C=C[C@]4(C)[C@@]3(F)[C@@H](O)C[C@]2(C)[C@@]1(O)C(=O)CO

>  <viability at 48 h, 3 µM (%)>
60.7

$$$$

---

# maps each entry to its viability at 48 h, 0.03 µM
# assay.procedure: in vitro
# recorded.conditions: mouse, swiss 3t3 fibroblasts

>  <compound>
CN(Cc1cnc2nc(N)nc(N)c2n1)c1ccc(C(=O)N[C@@H](CCC(=O)O)C(=O)O)cc1 [Methotrexate]

>  <viability at 48 h, 0.03 µM (%)>
100

$$$$
>  <compound>
C[C@@H]1C[C@H]2[C@@H]3CCC4=CC(=O)C=C[C@]4(C)[C@@]3(F)[C@@H](O)C[C@]2(C)[C@@]1(O)C(=O)CO [Dexamethasone]

>  <viability at 48 h, 0.03 µM (%)>
67.8

$$$$
>  <compound>
O=C(O)c1[nH]c2ccccc2c1Nc1ccncc1 [Example 28]

>  <viability at 48 h, 0.03 µM (%)>
111

$$$$

---

# assay.procedure: in vitro
# recorded.conditions: mouse, swiss 3t3 fibroblasts

>  <compound>
O=C(O)c1[nH]c2ccccc2c1Nc1ccncc1

>  <viability at 48 h, 0.01 µM>
112%

$$$$
>  <compound>
C[C@@H]1C[C@H]2[C@@H]3CCC4=CC(=O)C=C[C@]4(C)[C@@]3(F)[C@@H](O)C[C@]2(C)[C@@]1(O)C(=O)CO

>  <viability at 48 h, 0.01 µM>
71.6%

$$$$
>  <compound>
CN(Cc1cnc2nc(N)nc(N)c2n1)c1ccc(C(=O)N[C@@H](CCC(=O)O)C(=O)O)cc1 [Methotrexate]

>  <viability at 48 h, 0.01 µM>
103%

$$$$

---

# System: IL-4
# assay.procedure: Human primary Th2 cells, anti-CD3/anti-CD28 activated, IL-4 ELISA
# Type: cell-based
# recorded.conditions: human primary Th2 cells, anti-CD3 and anti-CD28 (Table 5)
Where a name gives a salt, the structure may show the parent alone.
Decision: IC50 beneath 4000 nM gives YES; IC50 meeting or exceeding 4000 nM gives NO.

>  <molecule>
O=C(O)c1[nH]c2cc(Cl)cc(Cl)c2c1NS(=O)(=O)c1ccccc1 [Reference Example 91]

>  <system>
IL-4

>  <label.class>
YES

$$$$
>  <molecule>
CCN(C(=O)c1ccccc1)c1c(C(=O)O)[nH]c2cc(Cl)cc(Cl)c12 [Reference Example 85]

>  <system>
IL-4

>  <label.class>
YES

$$$$
>  <molecule>
CN(C)CCOC(=O)c1[nH]c2cc(Cl)ccc2c1NC(=O)c1ccccc1

>  <system>
IL-4

>  <label.class>
NO

$$$$
>  <molecule>
CN(C(=O)c1ccccc1)c1c(C(=O)O)[nH]c2cc(Cl)c(Cl)cc12 [Reference Example 84]

>  <system>
IL-4

>  <label.class>
YES

$$$$
>  <molecule>
CN(C(=O)c1ccccc1)c1c(C(=O)O)[nH]c2cc(Cl)cc(Cl)c12 [Reference Example 77]

>  <system>
IL-4

>  <label.class>
YES

$$$$
>  <molecule>
CCOC(=O)c1[nH]c2ccccc2c1Nc1ccncc1

>  <system>
IL-4

>  <label.class>
NO

$$$$
>  <molecule>
CN(C(=O)c1ccc(Cl)cc1)c1c(C(=O)O)[nH]c2cc(Cl)cc(Cl)c12 [Reference Example 80]

>  <system>
IL-4

>  <label.class>
NO

$$$$
>  <molecule>
O=C(O)c1[nH]c2cc(Cl)cc(Cl)c2c1N(Cc1ccccc1)C(=O)c1ccccc1 [Reference Example 81]

>  <system>
IL-4

>  <label.class>
NO

$$$$
>  <molecule>
O=C(O)c1[nH]c2ccccc2c1Nc1ccncc1 [Example 28 (maleate salt)]

>  <system>
IL-4

>  <label.class>
YES

$$$$
>  <molecule>
O=C(Nc1c(C(=O)O)[nH]c2cc(Cl)ccc12)c1ccccc1 [Reference Example 78]

>  <system>
IL-4

>  <label.class>
YES

$$$$

---

# Test system: Human primary Th1 cells
# assay.procedure: Human primary Th1 (NYTh1) cells, proliferation (MTS assay)
# Format: cell-based
# recorded.conditions: data from 8 different experiments combined
pIC50: −log10 of the molar value.

>  <compound>
O=C(O)c1[nH]c2ccccc2c1Nc1ccncc1 [Example 28]

>  <system>
Human primary Th1 cells

>  <pIC50>
< 5.00

$$$$

---

# maps each entry to its pIC50
# Test system: IL-4
# assay.procedure: Human primary Th2 cells, anti-CD3/anti-CD28 activated, IL-4 ELISA
# Type: cell-based
# recorded.conditions: human primary Th2 cells, anti-CD3 and anti-CD28 (Table 5)
pIC50: −log10 of the molar value.
measurement.kind: pIC50

>  <compound>
CN(C(=O)CCc1ccccc1)c1c(C(=O)O)[nH]c2cc(Cl)ccc12 [Reference Example 76]

>  <measurement.kind>
pIC50

>  <reading>
5.40

$$$$
>  <compound>
CCOC(=O)c1[nH]c2cc(Cl)cc(Cl)c2c1NS(=O)(=O)c1ccccc1

>  <measurement.kind>
pIC50

>  <reading>
6.00

$$$$
>  <compound>
CCOC(=O)c1c(Nc2ccncc2)c2ccccc2n1C [Reference Example 24A]

>  <measurement.kind>
pIC50

>  <reading>
5.70

$$$$
>  <compound>
CCOC(=O)c1[nH]c2cc(Cl)cc(Cl)c2c1N(Cc1ccccc1)C(=O)c1ccccc1

>  <measurement.kind>
pIC50

>  <reading>
5.60

$$$$
>  <compound>
O=C(Nc1c(C(=O)O)[nH]c2cc(Cl)cc(Cl)c12)c1ccccc1Cc1ccccc1 [Reference Example 87]

>  <measurement.kind>
pIC50

>  <reading>
6.22

$$$$
>  <compound>
CN(C(=O)c1ccccc1)c1c(C(=O)O)[nH]c2cc(F)ccc12 [Reference Example 86]

>  <measurement.kind>
pIC50

>  <reading>
6.00

$$$$
>  <compound>
CN(C(=O)c1cccc(F)c1)c1c(C(=O)O)[nH]c2cc(Cl)cc(Cl)c12 [Reference Example 88]

>  <measurement.kind>
pIC50

>  <reading>
5.60

$$$$
>  <compound>
CN(c1c(C(=O)O)[nH]c2cc(Cl)cc(Cl)c12)S(=O)(=O)c1ccccc1 [Reference Example 92]

>  <measurement.kind>
pIC50

>  <reading>
6.35

$$$$

---

# assay.procedure: Human primary Th2 cells, proliferation (viability, MTS assay)
# Type: cell-based
# recorded.conditions: human, th2 cells; 0.03 µM; MTS; read-out: Proliferation (% control) mean
measurement.kind: viability at 0.03 µM

>  <compound>
O=C(O)c1[nH]c2ccccc2c1Nc1ccncc1 [Example 28]

>  <reading>
85%

$$$$

---

# assay.procedure: in vitro
# recorded.conditions: mouse, swiss 3t3 fibroblasts
measurement.kind: viability at 48 h, 10 µM (%)

>  <compound>
C[C@@H]1C[C@H]2[C@@H]3CCC4=CC(=O)C=C[C@]4(C)[C@@]3(F)[C@@H](O)C[C@]2(C)[C@@]1(O)C(=O)CO

>  <measurement.kind>
viability at 48 h, 10 µM

>  <unit.of.measure>
%

>  <reading>
60.5

$$$$
>  <compound>
O=C(O)c1[nH]c2ccccc2c1Nc1ccncc1

>  <measurement.kind>
viability at 48 h, 10 µM

>  <unit.of.measure>
%

>  <reading>
99.1

$$$$
>  <compound>
CN(Cc1cnc2nc(N)nc(N)c2n1)c1ccc(C(=O)N[C@@H](CCC(=O)O)C(=O)O)cc1 [Methotrexate]

>  <measurement.kind>
viability at 48 h, 10 µM

>  <unit.of.measure>
%

>  <reading>
92.4

$$$$
